Inhibition (%) at terbinafine concentration (μg/ml) 0.0001 values, listed per item
Test system: purified antibodies from hybridoma cell line LAM-JA
Test: Competitive ELISA for terbinafine derivatives (crossreactivity)
Type: binding, mice
Conditions: competitor 0.0001 μg/ml; mAb LAM-JA binding to terbinafine-BSA conjugate
Method: The antibodies of the invention are screened and characterized in conventional manner, e.g. according to their ability to distinguish between terbinafine and its metabolites and derivatives, e.g. by determination of relative cross-reactivity. […] The direct ELISA according to Example 3 above is converted to a competitive ELISA wherein a competitor is added to the monoclonal antibody solution, and binding of the mAB to the conjugate in the presence and absence of the competitor is measured. […]
Give the value in % but do not write % after it.

Below, 5 compounds whose answers are already recorded.
[
  {
    "COMPOUND": "CN(C/C=C/C#CC(C)(C)C)Cc1cccc2ccccc12",
    "OBSERVED_VALUE": 0.99
  },
  {
    "COMPOUND": "CN(C/C=C/C#CC(C)(C)CO)Cc1cccc2ccccc12 [Hydroxy-terbinafine]",
    "OBSERVED_VALUE": 0.40
  },
  {
    "COMPOUND": "CC(C)(C#C/C=C/CNCc1cccc2ccccc12)C(=O)O",
    "OBSERVED_VALUE": 2.81
  },
  {
    "COMPOUND": "CN(C/C=C/C#CC(C)(C)C(=O)O)Cc1cccc2ccccc12",
    "OBSERVED_VALUE": 0.85
  },
  {
    "COMPOUND": "CC(C)(C#C/C=C/CNCc1cccc2ccccc12)CO [Desmethyl-hydroxy-terbinafine]",
    "OBSERVED_VALUE": 3.60
  }
]

Q. Lab note: need Inhibition (%) at terbinafine concentration (μg/ml) 0.0001 with purified antibodies from hybridoma cell line LAM-JA for entry CC(C)(C)C#C/C=C/CNCc1cccc2ccccc12 , please look it up.
A. −0.45

###

experiment: HPLC and UV detection of terbinafine metabolites in the nail matrix; conditions: HPLC with UV detection
ASSAY_ENDPOINT: presence in the nail matrix

[
  {
    "MOLECULE": "CC(C)(C#C/C=C/CNCc1cccc2ccccc12)CO [Desmethyl-hydroxy-terbinafine]",
    "ASSAY_ENDPOINT": "presence in the nail matrix",
    "OBSERVED_VALUE": "no hint for the presence"
  },
  {
    "MOLECULE": "CN(C/C=C/C#CC(C)(C)C(=O)O)Cc1cccc2ccccc12 [Carboxy-terbinafine]",
    "ASSAY_ENDPOINT": "presence in the nail matrix",
    "OBSERVED_VALUE": "no hint for the presence"
  },
  {
    "MOLECULE": "CN(C/C=C/C#CC(C)(C)CO)Cc1cccc2ccccc12 [Hydroxy-terbinafine]",
    "ASSAY_ENDPOINT": "presence in the nail matrix",
    "OBSERVED_VALUE": "no hint for the presence"
  }
]
